Biological target: Acetyl esterase (Acetylxylosidase) (Bacteroides thetaiotaomicron)
Sequence (Q8ABF8 whole entry): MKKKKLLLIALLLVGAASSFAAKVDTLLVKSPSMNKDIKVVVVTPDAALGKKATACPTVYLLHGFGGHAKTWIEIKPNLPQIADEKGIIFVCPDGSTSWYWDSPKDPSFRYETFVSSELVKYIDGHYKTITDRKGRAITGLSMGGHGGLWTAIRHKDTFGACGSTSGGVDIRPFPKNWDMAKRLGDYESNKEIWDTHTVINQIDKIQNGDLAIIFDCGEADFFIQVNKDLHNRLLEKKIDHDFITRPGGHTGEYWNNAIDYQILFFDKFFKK
Experiment: The drug is tested on Bacteroides thetaiotaomicron strain: VPI-5482 for biotransformation. The drug concentrations were measured before and after a 12-h incubation by liquid-chromatography-coupled mass spectrometry (LC–MS)
Type: ADME
Set-up: dose 2 uM
Conditions: 2 µM
Property Measured: Bacterial Biotransformation

Study these solved cases before continuing.
{"Compound": "CC(=O)OCC(=O)[C@@]1(OC(C)=O)[C@@H](C)C[C@H]2[C@@H]3C[C@H](F)C4=CC(=O)C=C[C@]4(C)[C@@]3(F)[C@@H](O)C[C@@]21C [DIFLORASONE DIACETATE]", "System Under Test": "Acetyl esterase (Acetylxylosidase) (Bacteroides thetaiotaomicron)", "Property Measured": "Bacterial Biotransformation", "Recorded Value": "Compound NOT metabolized"}
{"Compound": "C[C@@H]1CC[C@H]2[C@@H](C)C(=O)O[C@@H]3O[C@@]4(C)CC[C@@H]1[C@]32OO4", "System Under Test": "Acetyl esterase (Acetylxylosidase) (Bacteroides thetaiotaomicron)", "Property Measured": "Bacterial Biotransformation", "Recorded Value": "Compound NOT metabolized"}
{"Compound": "COc1ccnc(C[S+]([O-])c2nc3ccc(OC(F)F)cc3[nH]2)c1OC (configuration not stated)", "System Under Test": "Acetyl esterase (Acetylxylosidase) (Bacteroides thetaiotaomicron)", "Property Measured": "Bacterial Biotransformation", "Recorded Value": "Compound NOT metabolized"}
{"Compound": "CCS(=O)(=O)CCn1c([N+](=O)[O-])cnc1C", "System Under Test": "Acetyl esterase (Acetylxylosidase) (Bacteroides thetaiotaomicron)", "Property Measured": "Bacterial Biotransformation", "Recorded Value": "Compound NOT metabolized"}
{"Compound": "N#Cc1ccc2c(c1)N(CCCN1CCC(O)CC1)c1ccccc1S2", "System Under Test": "Acetyl esterase (Acetylxylosidase) (Bacteroides thetaiotaomicron)", "Property Measured": "Bacterial Biotransformation", "Recorded Value": "Compound NOT metabolized"}

Proceed to the following item.
Would you mind telling me what Bacterial Biotransformation value was observed for `CC(=O)OCC(=O)[C@@]12N=C(C)O[C@@H]1C[C@H]1[C@@H]3CCC4=CC(=O)C=C[C@]4(C)[C@H]3[C@@H](O)C[C@@]12C` ?
Compound NOT metabolized
